test system: MS2 coat protein; assay: apparent KD of MS2 coat protein; designed switch direction (-1 OFF switch, 1 ON switch): -1; higher = weaker reporter binding; conditions: input ligand: FMN 200 uM
Hi there, I'd appreciate the recorded apparent KD of MS2 coat protein for every entry that follows.

[ask] Look up apparent KD of MS2 coat protein for this sequence: UACAUGAGGAUCACCCAUGUUUUGUCGUGUUUGGUACCCGUUUAGGAUAUCGUGUUAUUGGACCGCGAGAAGGAGAGUAUCAUU [Excl-NG3-LRO06] (Eterna round: R96, puzzle: Exclusion NG 3)
[reply] 32.2 nM

[ask] Query ACAUGAGGAUCACCCAUGUCUGGCUGGUCUGCUCCGGCUGUUGAGGAUAUAGUUCGGUGUUCGCGCUAGAAGGUGAGGGCUGGC [Aenatbe mod 37] (Eterna round: R96, puzzle: Exclusion NG 3) next
[reply] 32.2 nM

[ask] Also need ACAUGUUAUCCAUGAUAUCACAUGAGGAUCACCCAUGUUAUGGCGAUUUUGAGGUGUAAGUUUGUUGCUCGUCUUAU [JR_STOV1_Sub059] (Eterna round: R97, puzzle: Sensor, turn-off variant 1) , thanks.
[reply] 54.5 nM

[ask] And then UAACAGCAAGGAUAUACGGGCUGUGCUUUUCAUUUCUUACAACAUGAGGAUCACCCAUGUAGAAGGUGCAACAA [Ex2 #6] (Eterna round: R97, puzzle: Exclusion 2) , what is it?
[reply] 54.4 nM

[ask] Follow-up entry: AAAAGGCAGGGAGGAUAUGCUUACCUGGGUCGUCUUCAAACAUGAGGAUCACCCAUGUAGUCGACGCAGAAGGCCCUCAAAGCC [Mat - Exclusion NG 2 - Mod of JL - D58] (Eterna round: R96, puzzle: Exclusion NG 2)
[reply] 39.6 nM

---

Provide the recorded apparent KD of MS2 coat protein for the entries that follow.
tested on: MS2 coat protein; assay: apparent KD of MS2 coat protein; designed switch direction (-1 OFF switch, 1 ON switch): 1; higher = weaker reporter binding; details: input ligand: none
// return numeric value only (unit: nM, not printed)

[ask] May I ask what apparent KD of MS2 coat protein has been recorded for GUUACAUGAGGAUCACCCAUGUAUGUGUGGGAGUAAGUGUCUUAGGAUAUCUAUCAUUUAAUUCAAGAGAAGGAAGAUUGUUGU [JMF's solution 100] (Eterna round: R96, puzzle: Same State NG 3) ?
[reply] 103

[ask] Query GUACAAAUCAUAGGAUAUGGGCGGGAAUGCCGUCCAGAAGGAUGAACAUGAGGAUCACCCAUGUCCGGCCACAAAUACGCGGCC [Bientela] (Eterna round: R96, puzzle: Same State NG 1) next
[reply] 161

[ask] Thanks! And UUAAUAAUGUUAGGAUAUACAUGAGGAAUCCUCGUAGAAGGAACAUGACAUGAGGAUCACCCAUGUAGCGCUCGAAAGAGCGCA [Mat - Same State NG 1 - JL mod - D48] (Eterna round: R96, puzzle: Same State NG 1) ?
[reply] 417

[ask] Continue with GAGGGCGAAAGCAACAUGAGGAUCACCCAUGUCCUCGGAGGGCAGGAUAUCCGGCGGUAGCCGAAGGAGAAGGGUCGGUAAGAA [AK SSNG3-V2-33.1] (Eterna round: R96, puzzle: Same State NG 3)
[reply] 584
